Attribution: ChEMBL document CHEMBL4304834

Kindly state Ki for each of the entries shown.
system-under-test: 5-hydroxytryptamine receptor 1A (Homo sapiens, UniProt P08908)
Sequence (P08908 whole entry): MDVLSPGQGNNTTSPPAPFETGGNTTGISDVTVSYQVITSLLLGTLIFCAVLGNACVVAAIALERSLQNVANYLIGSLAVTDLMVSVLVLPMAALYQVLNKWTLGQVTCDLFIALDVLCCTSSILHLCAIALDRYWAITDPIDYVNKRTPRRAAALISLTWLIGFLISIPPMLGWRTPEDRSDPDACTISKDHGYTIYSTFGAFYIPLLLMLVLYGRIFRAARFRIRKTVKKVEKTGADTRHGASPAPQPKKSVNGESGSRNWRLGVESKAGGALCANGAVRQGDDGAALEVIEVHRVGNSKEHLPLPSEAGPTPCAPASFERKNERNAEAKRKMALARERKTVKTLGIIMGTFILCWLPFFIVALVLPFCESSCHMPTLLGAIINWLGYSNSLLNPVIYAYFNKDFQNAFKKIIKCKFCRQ
protocol-details: Displacement of [3H]-Way100635 from human recombinant 5-HT1A expressed in stable CHO cells after 90 mins by microbeta scintillation counting method
Format: cell-based
assay-conditions: read-out: pKi (converted)

Use these answered entries as a reference point.
>>> observed_value("CC[C@H]1c2ccc3ccccc3c2OC[C@@]1(C)N (racemic)")
"2510 nM"
>>> observed_value("COc1cc(OC)c2c(c1)OC[C@@]1(C)NCC[C@@H]21 (racemic)")
"1000 nM"

Look at each molecule and report its Ki.
1. CC[C@H]1c2cc(C)ccc2OC[C@@]1(C)N (racemic)
2. CN1CC[C@H]2c3ccccc3N(c3ccccc3)C[C@]21C (racemic)

Reply:
2000 nM
200 nM

Look at each molecule and report its Ki.
1. CN1CC[C@H]2c3cccc(-c4ccccc4)c3OC[C@]21C (racemic)
2. C[C@@]12COc3c(-c4ccccc4)cccc3[C@@H]1CCN2 (racemic)
3. CC[C@H]1c2cc(OC)ccc2OC[C@@]1(C)N (racemic)
4. CC[C@H]1c2c(ccc3ccccc23)OC[C@@]1(C)N (racemic)
5. CC[C@H]1c2cc(OC)ccc2CC[C@@]1(C)N (racemic)

Reply:
200 nM
200 nM
2510 nM
316 nM
631 nM

Look at each molecule and report its Ki.
1. C[C@@]12CN(c3ccccc3)c3ccccc3[C@@H]1CCN2 (racemic)
2. C[C@@]12COc3c(Br)cccc3[C@@H]1CCN2 (racemic)
3. CC[C@H]1c2cc(-c3ccccc3)ccc2OC[C@@]1(C)N (racemic)

Reply:
1: > 10000 nM; 2: 1000 nM; 3: 2000 nM
